What follows is literature data on IC50 for IRAK4 (Homo sapiens (Human), UniProt Q9NWZ3).

Here's what some known entries look like.
CC(=O)NC1(CNc2nc(-c3cccc(-c4cnn(C)c4)c3)ncc2-c2cnn(C)c2)CCCCC1 ... < 100 nM
C=CC(=O)N1CC(c2nc(-c3ccc(NC(=O)c4cccc(-c5ccn[nH]5)n4)nc3)no2)CC(F)(F)C1 (stereo not shown) ... > 10000 nM
CN(C)[C@H]1CC[C@H](Oc2ncnc3sc4c(c23)[C@@H](CCC(N)=O)CC4)CC1 ... < 5000 nM
CCC[C@H](N)c1cccc(-c2ccc3cnn(-c4cccc([C@H](O)C(F)(F)F)n4)c3c2)n1 ... < 100 nM
CN(C)[C@H]1CC[C@H](Nc2ncnc3sc4c(c23)C(CC(=O)NCCO)CC4)CC1 (stereo partly shown) ... 5000 to 20000 nM

// returns reported IC50 for input `CN1CCN(c2ccc(Nc3nc(N[C@H]4CC[C@](C)(O)CC4)c4sccc4n3)cc2)CC1`
1000 to 10000 nM

Same for `CN(C)[C@H]1CC[C@H](Oc2ncnc3sc4c(c23)C[C@H](CC(N)=O)CC4)CC1`
< 5000 nM

# repeat for `CC(F)(F)C[C@H](N)c1cccc(-c2ccc3cnn(-c4cccc(CO)n4)c3c2)n1`
< 100 nM

Also `O=C1Nc2nc3cc(F)c(F)cc3n2Cc2cccc(c2)-c2ccc(=O)n(n2)Cc2cccc1c2` ?
100 to 1000 nM

====

pIC50: −log10 of the molar value.
Literature pIC50 values, system: IRAK4 (Homo sapiens (Human), UniProt Q9NWZ3).

Check out these entries, answers already filled in.
Cc1ccnc(-n2ncc3ccc(-c4cncc(N)c4)cc32)n1 ... > 7.00
O=C(Nc1nc(CCC(=O)N2CC[C@@H](C(=O)O)C2)cn1-c1ccccc1)c1cccc(-c2cn[nH]c2)c1 ... 7.00 to 7.30
CN(C)[C@H]1CC[C@H](Nc2ncnc3sc4c(c23)C(CO)CC4)CC1 (stereo partly shown) ... > 5.30

Next item in the queue.
Recorded pIC50 for `COC(=O)N1Cc2sc3ncnc(O[C@H]4CC[C@H](N5CCOCC5)CC4)c3c2C1` , please?
4.30 to 4.70

====

pIC50: −log10 of the molar value.
Assay read-out pIC50 on IRAK4 (Homo sapiens (Human)); records merged from the literature.

Record excerpt, results attached:
Cn1cc(Nc2nc(O[C@H]3CCOC3)c3c(ccn3-c3cnn(C)c3)n2)cn1 ... ≥ 7.00
CC1(C)OC(=O)c2ccc(Nc3cc(N[C@H](CO)c4ccccc4)c(-c4nc(C5CC5)no4)cn3)cc21 ... 6.00 to 6.60
Cn1cc(-n2ccc3nc(Nc4cnoc4)nc(O[C@H]4CCOC4)c32)cn1 ... 6.00 to 7.00

Request body: readout pIC50, system IRAK4 (Homo sapiens (Human)), query `Cc1cccc(-n2ncc3ccc(-c4cccc(CN)n4)cc32)n1` . Return the value.
6.00 to 7.00

====

// molecules with IC50 on IRAK4 (Homo sapiens (Human), UniProt Q9NWZ3), multi-source literature

Worked cases, answers included:
CCc1nc2c(N[C@H]3CC[C@H](N4CCC(F)(F)CC4)CC3)nc(Nc3cnn(C)c3)nc2s1 ... 1000 to 5000 nM
C=CC(=O)N1CCC(N2CC(n3cc(NC(=O)c4cccc(-c5cn[nH]c5)n4)c(C(F)F)n3)C2)CC1 ... 2.5 nM

From here, focus on the item given below.
Any idea what IC50 was measured for CCC[C@H](N)c1cccc(-c2cc(N3CCCC(C(=O)O)C3)c3cnn(-c4cccc(CO)n4)c3c2)n1 (stereo partly drawn) ?
< 100 nM

====

pIC50: −log10 of the molar value.
Record: compiled pIC50 on IRAK4 (Homo sapiens (Human), UniProt Q9NWZ3) from multiple reports.

Endpoint output: pIC50 of `C[C@@H]1CCC[C@H](C)N1C(=O)CCCCCc1cn(-c2ccccc2)c(NC(=O)c2cccc(-c3cn[nH]c3)c2)n1` . Value?
> 7.30

Record: `c1ccc2c(N[C@H]3CC[C@H](N4CCOCC4)CC3)ncnc2c1`
≥ 5.30

Subsequent entry: `O=C(CCc1cn(-c2ccccc2)c(NC(=O)c2cccc(-c3cn[nH]c3)c2)n1)Nc1ccc(F)cc1`
7.00 to 7.30

// query: `CCC[C@H](N)c1cccc(-c2cc(Cl)c3cnn(-c4nccc(C(F)F)n4)c3c2)n1`
> 7.00

====

// merged dataset of IC50 values, system = UniProt:Q9NWZ3, multiple refs

In the examples that follow, each entry is paired with its recorded IC50.
Cc1nnc(-c2cnc(-c3cccc(-c4cnn(C)c4)c3)nc2NC2CCCN(S(C)(=O)=O)CC2)s1 (stereo not drawn) ... < 100 nM
CCC[C@H](N)c1cccc(-c2cc(NCC(C)(C)CCl)c3cnn(-c4cccc(CO)n4)c3c2)n1 ... < 100 nM
C[C@H](N)c1cccc(-c2cc(-c3ccncn3)c3cnn(-c4cccc(CO)n4)c3c2)n1 ... < 100 nM
CC[C@H](C[C@H]1CCc2sc3ncnc(O[C@H]4CC[C@H](N(C)C)CC4)c3c21)OC ... < 5000 nM
CN1CCN(c2cccc(Nc3nc(N[C@H]4CC[C@](C)(O)CC4)c4sccc4n3)c2)CC1 ... 100 to 1000 nM
CCOc1cc(-c2cccc([C@H](N)c3ccccc3)n2)cc2c1cnn2-c1cccc(CO)n1 ... < 100 nM

Look up IC50: `O=C(Nc1nc(CCCCCCN2CCCCC2)cn1-c1ccccc1)c1cccc(-c2ccc3[nH]ncc3c2)c1`
< 50 nM

And what about the compound `C[C@H](O)C(=O)N1CCC(N2CC(n3cc(NC(=O)c4cccc(-c5cnn(CC(F)(F)F)c5)n4)c(C(F)F)n3)C2)CC1` ?
3.3 nM

Entry to check: `N[C@H](c1cccc(-c2ccc3cnn(-c4cccc(CO)n4)c3c2)n1)C1(F)CCC1`
≤ 100 nM

Same lookup for Cn1cc(-c2cccc(-c3ncc(-c4cnn(C)c4)c(NC4CCC(=O)NC4)n3)c2)cn1 (stereo not drawn) , please.
< 100 nM

// repeat for `COCCCOc1nc(Nc2cc(C)ns2)nc2ccn(-c3cnn(C)c3)c12` and report
100 to 1000 nM

Now the same for `O=C(Nc1nc(CCCCCCN2CCCCC2)cn1-c1ccc(F)cc1F)c1cccc(-c2cn[nH]c2)c1`
> 100 nM

====

Here, compounds appear alongside pIC50 reported for IRAK4 (Homo sapiens (Human)) in the literature.
pIC50: −log10 of the molar value.
Endpoint Label: pIC50

CN(C)[C@H]1CC[C@H](Nc2ncnc3ccc(-c4cncc(C#N)c4)cc23)CC1 ... 7.34
CC(C)Nc1c(C(=O)Nc2ccc(N3CCOCC3)nc2)cnc2ccc(-c3cn[nH]c3)cc12 ... 8.35
O=C(NCc1ncn[nH]1)c1cnc2sc(-c3cncs3)cc2c1NC1COC1 ... 6.70
CC(C)(O)c1cc2nn(C3CCOCC3)cc2cc1NC(=O)c1cccc(C(F)(F)F)n1 ... 8.22
CCCc1c[nH]c(=O)c2cc3ccnc(OC[C@@H]4CCC(=O)N4)c3cc12 ... 7.13

P = CC(C)Nc1c(C(=O)N[C@H]2CC[C@H](O)CC2)cnc2c1Oc1cc(C#N)ccc1O2
Q = CC(C)Nc1cc(-n2ncc3cc(C#N)cnc32)ncc1-c1cn(C2CN(C(=O)C(C)C)C2)nn1
Sorting by pIC50 in descending order, would P or Q appear first? Use the label to indicate which entry you chose.
Q

P = CC(C)(O)c1cc2nn(C3CCN(CCCC4CCN(c5ccc6c(c5)C(=O)N(C5CCC(=O)NC5=O)C6=O)CC4)CC3)cc2cc1NC(=O)c1cccc(C(F)(F)F)n1 (centres unmarked)
Q = CCO[C@H]1CC[C@H](NC(=O)c2cnc(-c3cnn4cc(Cl)cnc34)cc2NC(C)C)CC1
R = CC(C)(O)[C@H](F)CNC(=O)c1cnc(Nc2ccc3ncsc3c2)cc1N[C@@H]1CCCC1F (some centres unmarked)
S = O=C1CCC(N2C(=O)c3cccc(OCCCCCCCCC(=O)N4CCC(c5cc(NC(=O)c6cccc(-c7ccn[nH]7)n6)n(-c6ccccn6)n5)CC4)c3C2=O)C(=O)N1 (centres unmarked)
Kindly order the items shown according to pIC50, from the highest value down. As an answer, provide the labels arranged in the order called for.
R, Q, P, S

P = CCN1CCOC[C@H]1c1cc(-c2cnc(-n3ncc4cc(C#N)cnc43)cc2NC(C)C)no1
Q = CC(C)(O)[C@H](F)CNC(=O)c1cnc(Nc2ccc3ncoc3c2)cc1NCC(F)(F)F
Hi there! Just curious which has the higher pIC50 between P and Q . Output the label that corresponds to your choice.
P

P = CC(C)(O)[C@H](F)CNC(=O)c1cnc(-c2cnc3cc(Cl)cnn23)cc1NCCC(F)F
Q = CC(C)(O)CCc1cn(-c2cnc(-n3ncc4cc(C#N)cnc43)cc2NC2CC(F)(F)C2)nn1
Lab note: check whether P or Q has the lower measured pIC50. Bench note: the answer is the label of the chosen record.
Q
